targetOfAssay: T1, HLA DQA1*0102:DQB1*0602, P01920
T1 chain 1: not shown
T1 chain 2: not shown
experiment: REVEAL class II binding assay (cell-free)
quantityName: REVEAL 0 hrs (% of positive control signal)
Answers are plain numbers.

Known results for binders:
> print(dat)
                                     binder  obsvalue
1  EKATNPIVPSFDMSN (modifications not checked) [Peptide #7 (Common CP sequence)]         0
2  IDPFKLLQNSQVVSL (modifications not checked) [Peptide #8 (Common CP sequence)]       0.1

Next up:
Record request: REVEAL 0 hrs (% of positive control signal) value, item AMERNAGSGIIISDT (modifications not checked) [Peptide #16 (Hemagglutinin fragment)] 0
